// provenance: ChEMBL document CHEMBL5042491

test: Inhibition of P-RNAase L R353E mutant expressed in Escherichia coli BL21 (DE3) assessed as inhibition rate; parameters: species or system Sus scrofa
pIC50: −log10 of the molar value.

- MOLECULE: "O=c1c(O[C@@H]2O[C@H](CO)[C@H](O)[C@H](O)[C@H]2O)c(-c2ccc(O)c(O)c2)oc2cc(O)cc(O)c12 [HYPEROSIDE]"
  pIC50: 6.19

---

test: Inhibition of P-RNAase L K164E mutant expressed in Escherichia coli BL21 (DE3) assessed as inhibition rate; design: species or system Sus scrofa
pIC50: −log10 of the molar value.
REPORTED METRIC: pIC50

- COMPOUND: "O=c1c(O[C@@H]2O[C@H](CO)[C@H](O)[C@H](O)[C@H]2O)c(-c2ccc(O)c(O)c2)oc2cc(O)cc(O)c12 [HYPEROSIDE]"
  REPORTED METRIC: "pIC50"
  NUMBER: 5.99

---

species: Sus scrofa; experiment: Inhibition of recombinant full length P-RNAase L (1 to 743 residues) expressed in Escherichia coli BL21 (DE3) using 5'-FAM-UAA-UCA-AAU-UCU-UAU-UUG-CCC-CAU-UUU-UUU-GGU-UUA-BHQ-1-3' as substrate incubated for 60 min by FRET assay
Activity calls are given as the source filed them. The calls are words filed in the database; no cut-off is given here.

- MOLECULE: "O=C(O)c1ccc(Cl)nc1Cl"
  inhibition: "Active"
- MOLECULE: "Cc1cc(C(=O)O)cc(Cl)n1"
  inhibition: "Active"
- MOLECULE: "C[S+]([O-])c1sc(Cl)c2c1C(=O)CCC2 (centres undefined)"
  inhibition: "Active"
- MOLECULE: "Oc1ccc(Sc2ccc(O)cc2)cc1"
  inhibition: "Active"

---

experiment: Inhibition of full length P-RNAase L expressed in Escherichia coli BL21 (DE3) assessed as inhibition rate incubated for 15 min in presence of 20 nM 2-5A for 15 mins by Coomassie staining based SDS-PAGE analysis; design: species or system Sus scrofa

- COMPOUND: "O=c1c(O[C@@H]2O[C@H](CO)[C@H](O)[C@H](O)[C@H]2O)c(-c2ccc(O)c(O)c2)oc2cc(O)cc(O)c12 [HYPEROSIDE]"
  IC50: "1420 nM"

---

experiment: Inhibition of full length P-RNAase L expressed in Escherichia coli BL21 (DE3) assessed as inhibition rate incubated for 15 min in presence of 5 nM 2-5A for 15 mins by Coomassie staining based SDS-PAGE analysis; parameters: species or system Sus scrofa
pIC50: −log10 of the molar value.
REPORTED METRIC: pIC50

- COMPOUND: "O=c1c(O[C@@H]2O[C@H](CO)[C@H](O)[C@H](O)[C@H]2O)c(-c2ccc(O)c(O)c2)oc2cc(O)cc(O)c12 [HYPEROSIDE]"
  REPORTED METRIC: "pIC50"
  NUMBER: 5.85

---

target: 2-5A-dependent ribonuclease (Homo sapiens, UniProt Q05823); experiment: Inhibition of full length H-RNAase L expressed in Escherichia coli BL21 (DE3) assessed as inhibition rate incubated for 15 min in presence of 20 nM 2-5A for 15 mins by Coomassie staining based SDS-PAGE analysis

- COMPOUND: "O=c1c(O[C@@H]2O[C@H](CO)[C@H](O)[C@H](O)[C@H]2O)c(-c2ccc(O)c(O)c2)oc2cc(O)cc(O)c12 [HYPEROSIDE]"
  IC50 / nM: 1420

---

test: Inhibition of full length P-RNAase L expressed in Escherichia coli BL21 (DE3) assessed as inhibition rate incubated for 15 min in presence of 1 nM 2-5A for 15 mins by Coomassie staining based SDS-PAGE analysis; parameters: species or system Sus scrofa

- MOLECULE: "O=c1c(O[C@@H]2O[C@H](CO)[C@H](O)[C@H](O)[C@H]2O)c(-c2ccc(O)c(O)c2)oc2cc(O)cc(O)c12 [HYPEROSIDE]"
  IC50 (nM): 1470

---

Biological target: 2-5A-dependent ribonuclease (Homo sapiens)
Sequence (whole entry): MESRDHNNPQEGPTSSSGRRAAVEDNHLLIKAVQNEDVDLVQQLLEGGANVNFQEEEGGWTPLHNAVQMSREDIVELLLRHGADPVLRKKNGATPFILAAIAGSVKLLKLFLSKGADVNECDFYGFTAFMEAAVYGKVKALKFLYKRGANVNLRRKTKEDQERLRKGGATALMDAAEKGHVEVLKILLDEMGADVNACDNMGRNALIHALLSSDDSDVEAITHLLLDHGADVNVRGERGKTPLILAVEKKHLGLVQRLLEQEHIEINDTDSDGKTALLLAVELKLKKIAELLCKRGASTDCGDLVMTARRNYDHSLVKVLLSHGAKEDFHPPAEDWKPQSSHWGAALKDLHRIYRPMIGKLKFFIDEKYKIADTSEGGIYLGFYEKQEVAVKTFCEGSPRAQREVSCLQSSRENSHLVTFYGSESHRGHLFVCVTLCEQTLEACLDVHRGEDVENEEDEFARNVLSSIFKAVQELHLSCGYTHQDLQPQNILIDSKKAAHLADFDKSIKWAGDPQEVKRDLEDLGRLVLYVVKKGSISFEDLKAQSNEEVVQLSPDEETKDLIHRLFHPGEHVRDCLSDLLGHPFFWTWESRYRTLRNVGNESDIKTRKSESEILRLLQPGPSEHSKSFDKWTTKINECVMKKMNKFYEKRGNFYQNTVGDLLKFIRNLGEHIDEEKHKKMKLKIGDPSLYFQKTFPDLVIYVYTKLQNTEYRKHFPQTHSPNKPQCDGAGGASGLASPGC
Test: Inhibition of recombinant full length H-RNAase L (1 to 741 residues) expressed in Escherichia coli BL21 (DE3) using 5'-FAM-UAA-UCA-AAU-UCU-UAU-UUG-CCC-CAU-UUU-UUU-GGU-UUA-BHQ-1-3' as substrate incubated for 60 min by FRET assay
Calls of active or inactive are those of the source. No cut-off for these calls is given here.

- MOLECULE: "O=C(O)c1ccc(Cl)nc1Cl"
  inhibition: "Active"
- MOLECULE: "CCCCOC(=O)c1ccc(O)cc1 [BUTYLPARABEN]"
  inhibition: "Active"
- MOLECULE: "Cc1cc(C(=O)O)cc(Cl)n1"
  inhibition: "Active"
- MOLECULE: "Oc1ccc(Sc2ccc(O)cc2)cc1"
  inhibition: "Active"
- MOLECULE: "C[S+]([O-])c1sc(Cl)c2c1C(=O)CCC2 (stereo not given)"
  inhibition: "Active"
